- assay-comment: PK in mouse brain after i.v. and oral delivery, cassette study in HCT116 tumor-bearing mice
- Format: in vivo
- assay-conditions: female, athymic nude (CD-1 nu/nu), mouse, oral delivery (10 mg/g Cassette Study), Time 48 hr, read-out: HSP90 Compounds in Mouse Brain
experimental-endpoint: concentration at 48 hr (ng/g)
Form entry: value (ng/g) — number only.

Q: Tell us which concentration at 48 hr value is on record for `CN(C)c1cc2c(cc1Sc1nc3c(N)nccc3n1CCNCC(C)(C)C)OCO2`
Result: 0.7

====

- assay-comment: PK profile of compound 15 after oral 30 mg/kg, single dose study
- Assay type: in vivo, mice
- assay-conditions: female, athymic nude (CD-1 nu/nu), mouse, plasma
experimental-endpoint: Cmax (ng/mL)
Form entry: value (ng/mL) — number only.

Q: Tell us which Cmax value is on record for `CN(C)c1cc2c(cc1Sc1nc3c(N)nccc3n1CCNCC(C)(C)C)OCO2`
Result: 1380
